Numbers sourced from patent US20240116910A1.

# test.target: recombinant His-tag Wip1 full length protein (amino acids #1-605) (Homo sapiens (Human))
# Sequence (O15297 whole entry): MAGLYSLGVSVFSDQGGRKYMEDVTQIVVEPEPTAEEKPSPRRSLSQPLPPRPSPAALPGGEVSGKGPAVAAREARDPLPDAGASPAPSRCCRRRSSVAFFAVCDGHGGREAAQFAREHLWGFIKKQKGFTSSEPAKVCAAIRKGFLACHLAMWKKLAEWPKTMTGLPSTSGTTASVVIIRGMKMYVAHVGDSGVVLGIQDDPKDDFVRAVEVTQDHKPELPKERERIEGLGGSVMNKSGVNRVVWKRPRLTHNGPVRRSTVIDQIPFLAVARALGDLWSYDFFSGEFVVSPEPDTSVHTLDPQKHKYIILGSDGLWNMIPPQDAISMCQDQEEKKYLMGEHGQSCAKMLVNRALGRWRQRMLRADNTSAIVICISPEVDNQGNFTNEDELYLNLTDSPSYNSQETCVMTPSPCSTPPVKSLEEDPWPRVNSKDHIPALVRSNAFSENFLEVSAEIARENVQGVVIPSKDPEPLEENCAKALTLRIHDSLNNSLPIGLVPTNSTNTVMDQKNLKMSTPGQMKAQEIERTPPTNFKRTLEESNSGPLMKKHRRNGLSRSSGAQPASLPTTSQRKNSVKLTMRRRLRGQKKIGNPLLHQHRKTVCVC
# assay.text: Wip1 full length phosphatase enzyme FDP assay
# run.parameters: fluorescein diphosphate (FDP) substrate, RT 2 hours, fluorescence Ex485/Em535
assay.readout: IC50 (nM)

# molecule, unit.info, measured.value
records = [
    ("Cc1ncc(Cl)cc1NC(C)c1ccc(C(=O)N[C@@H](CC2CCCC2)C(=O)NC23CC(C2)C3)s1 (some centres unmarked) [Compound 117]", "nM", 70),
    ("Cc1ncc(Cl)cc1N[C@@H](C)c1ccc(C(=O)N[C@@H](CC2CCCC2)C(=O)NC23CC(C2)C3)s1", "nM", 9),
    ("C[C@H](Nc1cccc(Cl)c1)c1ccc(C(=O)N[C@@H](CC2CCCC2)C(=O)NC2CC2)s1", "nM", 117),
    ("C[C@H](c1ccc(C(=O)N[C@@H](CC2CCCC2)C(=O)NC2CC2)s1)N1CCc2cc(F)c(Cl)cc21", "nM", 16),
    ("Cc1ncc(Cl)cc1N[C@@H](C)c1ccc(C(=O)N[C@H](C(=O)Nc2cnn(C)c2)C2CCCCC2)s1", "nM", 23),
    ("Cc1ncc(Cl)cc1N[C@@H](C)c1ccc(C(=O)N[C@@H](CC2CCCC2)C(=O)NC2CC(F)(F)C2)s1", "nM", 8),
]

P: Cc1ncc(Cl)cc1N[C@@H](C)c1ccc(C(=O)N[C@@H](CC2CCCC2)C(=O)NC2(C(F)(F)F)CC2)s1
Q: CC[C@@H](Nc1cc(Cl)cnc1C)c1ccc(C(=O)N[C@@H](CC2CCCC2)C(=O)N[C@@H]2CC2(F)F)s1
R: Cc1cc(NC(=O)[C@H](CC2CCCC2)NC(=O)c2ccc([C@H](C)Nc3cc(Cl)cnc3C)s2)cc(C)n1
Hey, quick one: sort these by IC50, low to high? Note for the reader: the ranking is given by listing the labels in the order requested.
R, P, Q

* * *

# test.target: recombinant His-tag Wip1(2-420) protein (amino acids #2-420) (Homo sapiens (Human), UniProt O15297)
# Sequence (O15297 2-420): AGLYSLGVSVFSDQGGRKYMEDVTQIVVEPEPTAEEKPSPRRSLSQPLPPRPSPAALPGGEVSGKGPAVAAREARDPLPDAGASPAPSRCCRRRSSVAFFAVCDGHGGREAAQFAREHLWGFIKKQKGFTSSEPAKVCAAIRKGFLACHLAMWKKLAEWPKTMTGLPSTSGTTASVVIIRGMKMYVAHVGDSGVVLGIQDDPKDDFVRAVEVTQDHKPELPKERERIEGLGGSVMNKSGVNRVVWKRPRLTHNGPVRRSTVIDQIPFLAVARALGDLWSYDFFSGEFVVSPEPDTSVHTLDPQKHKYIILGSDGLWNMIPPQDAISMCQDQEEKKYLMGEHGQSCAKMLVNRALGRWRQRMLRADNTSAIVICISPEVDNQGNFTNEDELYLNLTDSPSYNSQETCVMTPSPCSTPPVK
# assay.text: Wip1(2-420) phosphatase enzyme FDP assay
# run.parameters: fluorescein diphosphate (FDP) substrate, RT 2 hours, fluorescence Ex485/Em535; read-out: WIP1 (Truncated 2-420) FDP Assay: IC50
pIC50: −log10 of the molar value.
assay.readout: pIC50

Examples from the recorded data:
# molecule, pIC50
measured = [
    ("Cc1ncc(Cl)cc1N[C@@H](C)c1ccc(C(=O)N[C@@H](CC2CCCC2)C(=O)Nc2cnn(C)c2)s1 [Compound 98]", 8.22),
    ("Cc1ncc(Cl)cc1N[C@@H](C)c1ccc(C(=O)N[C@@H](CC2CCCC2)C(=O)Nc2cnn(C3CCOCC3)c2)s1 [Compound 163]", 8.30),
    ("Cc1ncc(Cl)cc1N[C@@H](C)c1ccc(C(=O)N[C@@H](CC2CCCC2)C(=O)NC2(C#N)CC2)s1 [Compound 34]", 7.77),
    ("COCC(Nc1cc(Cl)cnc1C)c1ccc(C(=O)N[C@@H](CC2CCCC2)C(=O)NC2CC2)s1 (some centres unmarked) [Compound 176]", 7.68),
    ("COc1ccc(-c2ncc(Cl)cc2N[C@@H](C)c2ccc(C(=O)N[C@@H](CC3CCCC3)C(=O)NC3CC3)s2)cc1 [Compound 236]", 8.15),
    ("Cc1ncc(Cl)cc1N[C@@H](C)c1ccc(C(=O)N[C@@H](CC2CCCC2)C(=O)N[C@H]2C[C@@H](F)C2)s1 [Compound 28]", 8.40),
    ("C[C@H](Nc1cc(Cl)cnc1C1CC1)c1ccc(C(=O)N[C@@H](CC2CCCC2)C(=O)NC2CC2)s1 [Compound 70]", 8.22),
    ("CNC(=O)C12CC(NC(=O)[C@H](CC3CCCC3)NC(=O)c3ccc([C@H](C)Nc4cc(Cl)cnc4C)s3)(C1)C2 [Compound 44]", 7.92),
    ("Cc1ncc(Cl)cc1N[C@@H](c1ccc(C(=O)N[C@@H](CC2CCCC2)C(=O)NC23CC(C2)C3)s1)C(F)(F)F [Compound 186]", 6.71),
    ("C[C@H](c1ccc(C(=O)N[C@@H](CC2CCCC2)C(=O)NC2CC2)s1)N1CCc2cc(F)c(Cl)cc21 [Compound 57]", 7.92),
]

I: Cc1ncc(Cl)cc1N[C@@H](C)c1ccc(C(=O)N[C@@H](CC2CCCC2)C(=O)NC2COC2)s1 [Compound 27]
II: COCc1ncc(Cl)cc1N[C@@H](C)c1ccc(C(=O)N[C@@H](CC2CCCC2)C(=O)NC2CC2)s1 [Compound 226]
Compare the recorded pIC50 of I and II ; state which is larger. State the label of the item chosen.
I
(I: 8.22, II: 7.96)
